molecular target: Recombinant human liver GK1 (GST-GK) (Homo sapiens, UniProt P35557); construct: made in house; host or cells: E. coli; experiment: In vitro glucokinase activity (G6PDH-coupled NADH generation assay); assay type: biochemical; set-up: unit not given here; details: concentration of activator that produced a 50% increase in the activity of GK; 5 mM D-glucose, 30° C., pH 7.1, 10% DMSO
Sequence (P35557 1-466 isoform P35557-2): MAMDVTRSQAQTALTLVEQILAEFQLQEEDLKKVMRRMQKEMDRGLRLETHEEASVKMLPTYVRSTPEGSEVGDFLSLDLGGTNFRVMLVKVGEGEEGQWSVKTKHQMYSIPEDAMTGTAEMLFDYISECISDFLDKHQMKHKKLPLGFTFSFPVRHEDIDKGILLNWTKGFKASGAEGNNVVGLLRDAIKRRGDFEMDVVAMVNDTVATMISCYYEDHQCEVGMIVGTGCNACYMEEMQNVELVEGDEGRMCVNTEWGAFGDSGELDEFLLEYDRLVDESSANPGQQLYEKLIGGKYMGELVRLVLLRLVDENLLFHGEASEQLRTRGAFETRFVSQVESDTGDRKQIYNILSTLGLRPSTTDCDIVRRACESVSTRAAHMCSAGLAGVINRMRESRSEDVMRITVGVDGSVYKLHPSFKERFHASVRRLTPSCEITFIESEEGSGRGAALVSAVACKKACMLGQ
Overview of recorded SC 1.5:0.1 for various molecules
Quick one: just the number, no unit, thanks!

Recorded SC 1.5:0.1, per entry:
smiles_str: COC(=O)c1ccc(NC(=O)[C@H](CC(C)C)N2CC3=C(Oc4c(Cl)cccc4C3)C2=O)nc1
value_reported: 9.858
--
smiles_str: CC(C)C[C@@H](C(=O)Nc1ccccn1)N1CC2=C(Oc3c(Cl)cccc3C2)C1=O
value_reported: 11.865
--
smiles_str: O=C(Nc1ccccn1)[C@H](CC1CCCCC1)N1CC2=C(Oc3cccc(Cl)c3C2)C1=O
value_reported: 1.311

Attention now turns to another entry.
Prompt: Returns the measured SC 1.5:0.1 for the input molecule. Input: COc1cccc2c1CC1=C(O2)C(=O)N([C@@H](CC2CCCCC2)C(=O)Nc2ccccn2)C1
Response: 0.333
